Tested on: NCI-H522 lung
test: NCI tumour cell line growth inhibition, 48 h
reported_metric: GI50

>>> df
                                   molecule  experimental_result
0  COc1ccc(Cn2c(Br)c3c(c2Br)-c2nc(N)sc2CC3)cc1              1590 nM
1  C=C1C(=O)O[C@H]2[C@H]1CC/C(CNC(=O)c1cc3ccccc3[nH]1)=C\CC[C@@]1(C)O[C@@H]21              1570 nM
2  CCCCCCCCCCSC(=N)N (tested in a mixture with another compound)              1910 nM

====

Tested on: RXF 393 renal
test: NCI tumour cell line growth inhibition, 48 h

molecule	TGI
CCOC(=O)c1csc(NC(=O)CN2CCCC2)n1	> 100 µM
CN(C)c1ccc(/C=N/NC(=S)Nc2ccccc2)cc1	> 100 µM
O=C(CC1Sc2ccccc2NC1=O)Nc1ccccc1[N+](=O)[O-] (stereo not drawn)	> 100 µM
N#CSC#CCCC#CSC#N	35.7 µM
O=c1[nH]c(-c2ccccc2)nc2cc(Cl)ccc12	> 100 µM
CC(=O)[O-].CC(=O)[O-].O=C(N/N=C/c1cc(Cl)cc(Cl)c1O)c1ccncc1.[Cu+2]	> 100 µM
Fc1cc(-c2nnc3n2N=C(c2ccc(Cl)cc2)CS3)c(Cl)cc1Cl	14.7 µM
O=S1C(=c2ccc(=C3Sc4ccccc4S3)cc2)Sc2ccccc21 (stereo not drawn)	> 57.7 µM
OC(c1cc(C(F)(F)F)nc2c(C(F)(F)F)cccc12)C1CCCCN1 (stereo not drawn)	4.53 µM
COc1ccc2ncnc(Nc3ccc(OCc4ccccc4)cc3)c2c1	10.2 µM
C[C@]12c3c4cc(NC(=O)C(=O)NCc5ccc(-c6ccccn6)nc5)cc3Oc3cc(NC(=O)C(=O)NCc5ccc(-c6ccccn6)nc5)cc(c31)OC1C=C(NC(=O)C(=O)NCc3ccc(-c5ccccn5)nc3)C=C(O4)C12 (stereo partly drawn)	> 100 µM
C=C1C[C@H](O)[C@H](Br)C(C)(C)[C@@]12CCC(C)=C(Cl)C2	4.12 µM
O=C(O)Cc1ccc([N+](=O)[O-])cc1[N+](=O)[O-]	> 100 µM
